experimental.protocol: Colorimetric alkylation rate constant assay with TNB^2− as non-specific thiol
Assay type: physicochemical
settings: Replicate 1, 1626 sec, [B]0 = 250; in µM
quantity: remaining [B]

>>> recorded_number("O=C(CCl)Nc1ccccc1C(=O)O")
246.346
>>> recorded_number("O=C(CCl)N1CCOCC1")
239.756
>>> recorded_number("O=C(CCl)Nc1ccccc1")
242.232
>>> recorded_number("COc1cc2sc(C(=O)CCC(=O)O)cc2cc1NC(=O)CCl [Compound E2]")
241.949
>>> recorded_number("C=CS(=O)(=O)Nc1cc2cc(C(=O)CCC(=O)O)sc2cc1OC [Compound E1]")
244.866
>>> recorded_number("O=C(CCl)Nc1ccc(F)cc1")
242.976

* * *

experimental.protocol: Colorimetric alkylation rate constant assay with thiol N1
Type: physicochemical
settings: Replicate 1; time 576 sec; N1 from calibration curve (N1 in uM); in µM
quantity: remaining [A]

>>> recorded_number("O=C(CCl)Nc1ccccc1 [Compound C2]")
80.4651
>>> recorded_number("O=C(CCl)Nc1ccc(F)cc1 [Compound C3]")
79.3821
>>> recorded_number("O=C(CCl)N1CCOCC1 [Compound C4]")
78.3846
